Exercise: for every item that follows, state its recorded pKi.
Biological target: PC2 (Mus musculus)
Sequence (P21661 109-637): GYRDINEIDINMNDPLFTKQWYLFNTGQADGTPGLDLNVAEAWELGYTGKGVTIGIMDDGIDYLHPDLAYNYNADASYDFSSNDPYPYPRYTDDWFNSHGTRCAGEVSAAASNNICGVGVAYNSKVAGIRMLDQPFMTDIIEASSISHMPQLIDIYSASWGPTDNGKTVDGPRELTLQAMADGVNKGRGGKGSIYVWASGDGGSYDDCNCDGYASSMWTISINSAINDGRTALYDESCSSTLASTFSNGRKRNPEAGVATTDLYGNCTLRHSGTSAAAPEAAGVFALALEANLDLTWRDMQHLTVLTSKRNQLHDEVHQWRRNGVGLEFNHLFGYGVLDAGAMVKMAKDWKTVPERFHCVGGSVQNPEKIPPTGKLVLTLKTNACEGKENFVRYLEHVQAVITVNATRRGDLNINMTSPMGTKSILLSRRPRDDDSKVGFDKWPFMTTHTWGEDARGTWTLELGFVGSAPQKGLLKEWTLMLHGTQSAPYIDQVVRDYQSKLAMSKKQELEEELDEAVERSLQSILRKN
Experiment: PC2 enzyme assay, hydrolysis of pERTKR-MCA at pH 5.0
Assay type: biochemical
Set-up: made in house
Non-standard residues stand in square brackets, D forms with d. Residues, ends and D or L forms follow the SMILES beside them.
Answers are plain numbers, as −log10 of the molar value.

compound	assay.system	pKi
CC(=O)N[C@@H](CC(C)C)C(=O)N[C@@H](CC(C)C)C(=O)N[C@@H](CCCNC(=N)N)C(=O)N[C@H](C(=O)N[C@@H](CCCCN)C(=O)N[C@@H](CCCNC(=N)N)C(N)=O)C(C)C	PC2 (Mus musculus)	6.00
CC(=O)N[C@H](Cc1c[nH]c2ccccc12)C(=O)N[C@H](CCCNC(=N)N)C(=O)N[C@H](CCCNC(=N)N)C(=O)N[C@H](CCCNC(=N)N)C(=O)N[C@H](CCCNC(=N)N)C(=O)N[C@H](CCCNC(=N)N)C(N)=O [Ac-wrrrrr-NH2] (Ac-[dW][dR][dR][dR][dR][dR]-NH2)	PC2 (Mus musculus)	3.48
CC(=O)N[C@@H](CC(C)C)C(=O)N[C@@H](CC(C)C)C(=O)N[C@@H](CCCN=C(N)N)C(=O)N[C@H](C(=O)N[C@@H](CCCCN)C(=O)N[C@@H](CCCN=C(N)N)C(=O)O)C(C)C	PC2 (Mus musculus)	5.89
CC(C)C[C@H](NC(=O)[C@@H](N)CC(C)C)C(=O)N[C@@H](CCCNC(=N)N)C(=O)N[C@H](C(=O)N[C@@H](CCCCN)C(=O)N[C@@H](CCCNC(=N)N)C(=O)O)C(C)C	PC2 (Mus musculus)	5.43
CC(=O)N[C@H](Cc1c[nH]c2ccccc12)C(=O)N[C@H](CCCNC(=N)N)C(=O)N[C@H](CCCNC(=N)N)C(=O)N[C@H](CCCNC(=N)N)C(=O)N[C@H](CCCNC(=N)N)C(=O)N[C@H](CC(C)C)C(N)=O [Ac-wrrrrl-NH2] (Ac-[dW][dR][dR][dR][dR][dL]-NH2)	PC2 (Mus musculus)	3.69

Value sought for every listed compound: pKi.
1. CC(C)C[C@H](NC(=O)[C@@H](N)CC(C)C)C(=O)N[C@@H](CCCNC(=N)N)C(=O)N[C@H](C(=O)N[C@@H](CCCCN)C(=O)N[C@@H](CCCNC(=N)N)C(N)=O)C(C)C
2. CC[C@@H](C)[C@@H](NC(=O)[C@@H](CCCNC(=N)N)NC(=O)[C@@H](CCCNC(=N)N)NC(=O)[C@@H](CCCNC(=N)N)NC(=O)[C@@H](Cc1c[nH]c2ccccc12)NC(C)=O)C(=O)N[C@H](CCCNC(=N)N)C(N)=O [Ac-wrrrir-NH2] (Ac-[dW][dR][dR][dR][dI][dR]-NH2)
3. CC[C@@H](C)[C@@H](NC(=O)[C@@H](CCCNC(=N)N)NC(=O)[C@@H](CCCNC(=N)N)NC(=O)[C@@H](CCCNC(=N)N)NC(=O)[C@@H](Cc1c[nH]c2ccccc12)NC(C)=O)C(=O)N[C@H](CC(C)C)C(N)=O [Ac-wrrril-NH2] (Ac-[dW][dR][dR][dR][dI][dL]-NH2)

Data returned:
[5.64, 3.40, 3.22]

----------
Target: recombinant mouse furin (Mus musculus)
Construct: truncated N-terminally to the transmembrane domain at His^711 using PCR; myc (C, cleaved yes); hexa-His (C, cleaved yes)
Sequence (P23188 108-714 limits assumed): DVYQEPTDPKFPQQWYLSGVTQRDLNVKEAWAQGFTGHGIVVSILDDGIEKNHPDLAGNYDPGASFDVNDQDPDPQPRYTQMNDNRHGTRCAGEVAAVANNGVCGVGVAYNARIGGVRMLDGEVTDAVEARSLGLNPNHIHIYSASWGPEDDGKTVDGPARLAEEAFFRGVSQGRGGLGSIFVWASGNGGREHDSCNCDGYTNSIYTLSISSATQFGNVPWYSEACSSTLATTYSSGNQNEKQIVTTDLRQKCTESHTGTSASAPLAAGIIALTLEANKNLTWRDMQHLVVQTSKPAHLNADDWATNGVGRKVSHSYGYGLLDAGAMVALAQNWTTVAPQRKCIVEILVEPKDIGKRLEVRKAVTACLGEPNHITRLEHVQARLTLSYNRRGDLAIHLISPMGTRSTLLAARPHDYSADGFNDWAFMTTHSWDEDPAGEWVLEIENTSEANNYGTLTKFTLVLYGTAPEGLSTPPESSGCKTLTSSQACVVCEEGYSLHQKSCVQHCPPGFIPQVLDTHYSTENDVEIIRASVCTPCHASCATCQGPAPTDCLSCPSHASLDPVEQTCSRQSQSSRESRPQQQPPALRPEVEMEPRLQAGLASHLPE
Assay: Furin enzyme assay, hydrolysis of pERTKR-MCA at pH 7.0
Non-standard residues stand in square brackets, D forms with d. Residues, ends and D or L forms follow the SMILES beside them.
metric: pKi
Give bare numbers, as −log10 of the molar value.

Notebook: CC[C@@H](C)[C@@H](NC(=O)[C@@H](CCCNC(=N)N)NC(=O)[C@@H](CCCNC(=N)N)NC(=O)[C@@H](CCCNC(=N)N)NC(=O)[C@@H](Cc1c[nH]c2ccccc12)NC(C)=O)C(=O)N[C@H](CCCNC(=N)N)C(N)=O [Ac-wrrrir-NH2] (Ac-[dW][dR][dR][dR][dI][dR]-NH2) , pKi read as 5.15

----------
Give Ki for every item shown.
Biological target: PACE4 (Rattus norvegicus, UniProt Q63415)
Construct: made in house; host or cells: stably transfected hEK-293 cells (gift of R. E. Mains), conditioned medium
Sequence (Q63415 133-937): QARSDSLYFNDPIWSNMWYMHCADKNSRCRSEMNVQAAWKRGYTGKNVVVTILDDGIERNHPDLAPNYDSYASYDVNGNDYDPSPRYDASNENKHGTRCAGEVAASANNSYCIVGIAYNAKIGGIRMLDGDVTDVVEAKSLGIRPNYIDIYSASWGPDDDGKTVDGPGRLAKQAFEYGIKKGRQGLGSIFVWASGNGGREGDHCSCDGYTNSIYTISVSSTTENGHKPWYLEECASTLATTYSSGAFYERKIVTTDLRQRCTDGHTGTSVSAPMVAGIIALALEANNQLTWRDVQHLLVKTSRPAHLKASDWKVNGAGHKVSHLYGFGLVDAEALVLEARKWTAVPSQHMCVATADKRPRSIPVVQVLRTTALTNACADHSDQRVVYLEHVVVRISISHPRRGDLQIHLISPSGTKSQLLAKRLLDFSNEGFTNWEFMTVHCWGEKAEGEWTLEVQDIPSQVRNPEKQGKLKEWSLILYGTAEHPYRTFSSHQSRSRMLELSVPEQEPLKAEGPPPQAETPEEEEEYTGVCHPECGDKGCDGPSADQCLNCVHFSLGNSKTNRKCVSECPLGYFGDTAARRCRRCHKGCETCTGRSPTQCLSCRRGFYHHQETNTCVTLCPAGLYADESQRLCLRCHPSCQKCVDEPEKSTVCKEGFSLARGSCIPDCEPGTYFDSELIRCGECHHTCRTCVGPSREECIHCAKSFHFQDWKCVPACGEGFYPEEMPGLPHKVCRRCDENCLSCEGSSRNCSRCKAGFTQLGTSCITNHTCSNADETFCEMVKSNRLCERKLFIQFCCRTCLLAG
Assay: PACE4 enzyme assay, hydrolysis of pERTKR-MCA
Format: biochemical
Procedure: The proprotein convertase PACE4 was partially purified from an overnight-conditioned medium of stably transfected hEK-293 human embryonic kidney cells (a generous gift of R. E. Mains, Johns Hopkins University School of Medicine, Baltimore, Md.). […] Enzyme Assays and Hexapeptide Library Screening. […] All assays were performed at 37° C. in a 96 well fluorometer (Labsystems) at an excitation wavelength of 380 nm with emission monitored at a wavelength of 460 nm. […]
Answers are plain numbers, in µM.

Use these answered entries as a reference point.
compound	assay.system	metric	unit.tag	obs.value
N=C(N)NCCC[C@H](NC(=O)[C@H](CCCNC(=N)N)NC(=O)[C@H](CCCNC(=N)N)NC(=O)[C@H](CCCNC(=N)N)NC(=O)[C@H](CCCNC(=N)N)NC(=O)[C@@H](N)CCCNC(=N)N)C(=O)O [Hexa-L-arginine]	PACE4 (Rattus norvegicus, UniProt Q63415)	Ki	µM	0.52
N=C(N)NCCC[C@H](NC(=O)[C@H](CCCNC(=N)N)NC(=O)[C@H](CCCNC(=N)N)NC(=O)[C@H](CCCNC(=N)N)NC(=O)[C@H](CCCNC(=N)N)NC(=O)[C@H](CCCNC(=N)N)NC(=O)[C@H](CCCNC(=N)N)NC(=O)[C@@H](N)CCCNC(=N)N)C(=O)O [Octa-L-arginine]	PACE4 (Rattus norvegicus, UniProt Q63415)	Ki	µM	0.15
N=C(N)NCCC[C@H](NC(=O)[C@H](CCCNC(=N)N)NC(=O)[C@H](CCCNC(=N)N)NC(=O)[C@H](CCCNC(=N)N)NC(=O)[C@H](CCCNC(=N)N)NC(=O)[C@H](CCCNC(=N)N)NC(=O)[C@@H](N)CCCNC(=N)N)C(=O)O [Hepta-L-arginine]	PACE4 (Rattus norvegicus, UniProt Q63415)	Ki	µM	0.24

Turning now to a further record.
Ki for PACE4 (Rattus norvegicus, UniProt Q63415) with input N=C(N)NCCC[C@H](NC(=O)[C@H](CCCNC(=N)N)NC(=O)[C@H](CCCNC(=N)N)NC(=O)[C@H](CCCNC(=N)N)NC(=O)[C@H](CCCNC(=N)N)NC(=O)[C@H](CCCNC(=N)N)NC(=O)[C@H](CCCNC(=N)N)NC(=O)[C@H](CCCNC(=N)N)NC(=O)[C@@H](N)CCCNC(=N)N)C(=O)O [Nona-L-arginine] equals 0.11

----------
Target: recombinant mouse furin (Mus musculus)
Construct: truncated N-terminally to the transmembrane domain at His^711 using PCR; myc (C, cleaved yes); hexa-His (C, cleaved yes); made in house; host or cells: DG44 CHO cells, conditioned medium
Assay: Furin enzyme assay, hydrolysis of pERTKR-MCA at pH 7.0
Format: biochemical
metric: pKi
One number for each entry, as −log10 of the molar value.

Assay recombinant mouse furin (Mus musculus), sample Ac-RHKRRR-NH2 [Ac-RHKRRR-NH2] , pKi read: 5.47
